biological target: Solute carrier family 2, facilitated glucose transporter member 1 (Homo sapiens); test: ST_JUDE_LEISH: Cytotoxicity at 2uM final concentration against transgenic Leishmania Mexicana promastigotes LmGLUT1 that are glucose transport deficient and complemented with the human glucose transporter GLUT1. Activity is measured by DNA content using SYBR green in vitro; type: functional
PROPERTY: inhibition (%)

>>> assay_result("Cc1ccc2c(N/N=C/c3ccccc3[N+](=O)[O-])cc(C)nc2c1")
2.06
>>> assay_result("COc1cc2nccc(Nc3ccc(NC(=O)c4ccc(C)cc4)c(O)c3)c2cc1OC")
6.88
>>> assay_result("COc1ccc2nccc([C@@H](O)CN3CCC(NC(=O)c4ccc(CN5CCN(c6cccc(C)c6)CC5C)cc4)CC3)c2c1 (some centres undefined)")
4.12
>>> assay_result("COc1ccc(Cl)cc1N1CCN(CCCNC(=O)c2ccc(-c3nc4cc(Cl)c(F)cc4[nH]3)c(F)c2)CC1")
6.94
>>> assay_result("Cc1ccc(C(C)C)c(Oc2ccc3nc(N)nc(N)c3c2)c1")
13.2
>>> assay_result("Oc1c(C(Nc2nc3ccccc3s2)c2ccccc2)ccc2cccnc12 (centres undefined)")
2.66
>>> assay_result("O=C(/C=C/c1ccc(Cl)cc1)NCCCCCN1CCC(C(=O)Nc2ccc(Cl)cc2)CC1")
-0.92
>>> assay_result("CCc1cc(NC(=O)Nc2ccnc3ccccc23)ccc1OC")
19
>>> assay_result("CCNc1cc(C)nc(Nc2ccc(NC(=O)c3ccc(OC)c(OC)c3)cc2)n1")
5.48
>>> assay_result("COc1ccc(Oc2ccc(-c3c(C)[nH]c(C)c(Cl)c3=O)cc2)cc1")
2.75
>>> assay_result("CNC(=O)c1ccc2nc(C3CC3)n(CC3CCN(S(=O)(=O)c4cccc(Cl)c4)CC3)c2c1")
1.69
>>> assay_result("Cn1nc(-c2ccc(Cl)cc2)c2cc(C(=O)NCCN3CCOCC3)sc21")
-0.16
>>> assay_result("Cc1ccc(C(NC(=O)C2CCCCC2)c2ccc3cccnc3c2O)cc1 (centres undefined)")
0.75
>>> assay_result("COc1cccc(Nc2nccc(NCC(O)c3cccc(C(F)(F)F)c3)n2)c1 (centres undefined)")
4.86
>>> assay_result("CC(c1cccc(Nc2nccc(-c3c(-c4cccc(NC(=O)c5c(F)cccc5F)c4)nn4ccccc34)n2)c1)S(C)(=O)=O (centres undefined)")
3.25
>>> assay_result("O=C(/C=C/c1ccc(Cl)cc1)NCCCCCN1CCN(C(=O)Nc2ccc(Cl)c(C(F)(F)F)c2)CC1")
4.45
>>> assay_result("COc1ccc(Nc2ncc(OC)c(Nc3ccccc3C(N)=O)n2)cc1N1CCN(C)CC1")
17.6
>>> assay_result("COc1ccc2cc(C(=O)NC3CCC(CCN4CCc5cc(C#N)ccc5C4)CC3)[nH]c2c1 (centres undefined)")
3.48
>>> assay_result("Cc1ccc(C(=O)Nc2ccc(Cl)c(N3CCN(CCc4ccccc4)CC3)c2)cc1")
4.14
>>> assay_result("Cc1csc(-c2nonc2NC(=O)COc2ccccc2C(C)C)n1")
2.07
>>> assay_result("COc1ccc(C=NNc2ccnc3cc(F)c(C)cc23)c2ccccc12")
8.78
>>> assay_result("Cc1cc2nc(-c3ccc(C(=O)NC4CCN(Cc5ccccc5)CC4)cc3)[nH]c2cc1C")
14.1
>>> assay_result("O=C(COC(=O)c1cccc(S(=O)(=O)N2CCc3ccccc32)c1)NNC(=O)c1cccs1")
4.4
>>> assay_result("COc1cccc(Cc2c(C)nc3nc(N)nc(N)c3c2C)c1")
-0.08
>>> assay_result("Cc1ccccc1NC(=O)NC1CCN(CCCCCNC(=O)/C=C/c2ccc(Cl)c(Cl)c2)CC1")
1.77
>>> assay_result("CC(=O)c1c[nH]c(C(=O)Nc2ccc(-c3cn4ccccc4n3)cc2)c1")
11.8
>>> assay_result("CCC[C@@H]([C@@H](Cc1ccc(C)s1)C(=O)N[C@@H](CNC(C)=O)C(=O)Nc1nccs1)N(O)C=O")
12
>>> assay_result("O=C(Cn1cnc2c(nnn2Cc2ccccc2F)c1=O)Nc1ccc2c(c1)OCCO2")
1.31
>>> assay_result("COc1cccc(-c2cc(-c3ccc(NC(=O)c4ccccc4)cc3)c3c(N)ncnc3n2)c1")
-0.77
>>> assay_result("CC(=O)NCCNc1nccc(N2CCc3ncnc(Nc4ccc(OCc5cccc(F)c5)c(Cl)c4)c3C2)n1")
0.07
>>> assay_result("Cc1cc(N)c2cc(NC(=O)/C=C/c3ccccc3)ccc2n1")
-0.18
>>> assay_result("N=C(N)NN=Cc1c2ccccc2c(Cl)c2ccc(Cl)cc12")
107
>>> assay_result("c1ccc(COc2ccc(C3CCCCC3)cc2)nc1")
0.38
>>> assay_result("Cc1cc2c(cc1C(F)(F)F)N(C(=O)Nc1cccc(C(=O)NC3CCN(Cc4ccccc4)CC3)c1)CC2")
2.13
>>> assay_result("CCNc1cc(C)nc(Nc2ccc(NC(=O)c3ccccc3Cl)cc2)n1")
6.51
>>> assay_result("CC(C)(C)c1ccc(CNCCOc2ccc(Nc3nnc(-c4ccc(-c5ncc[nH]5)cc4)o3)c3ccccc23)cc1")
2.98
>>> assay_result("Cc1nc(-c2cccc(NC(C)C(=O)Nc3cc(C(F)(F)F)ccc3N3CCOCC3)c2)cs1 (centres undefined)")
0.08
>>> assay_result("COc1ccc2nccc(N3CCC(SCCNCc4cc5c(cn4)OCCO5)C3)c2n1 (centres undefined)")
0.61
>>> assay_result("CO/C(=C/C=C/c1cc2cc(Cl)c(Cl)cc2[nH]1)C(=O)NC1CC(C)(C)N(C)C(C)(C)C1")
2.45
